- assayInfo: Kinetic Solubility Assay in pH 7.4 Buffer + 2% DMSO
- Assay type: physicochemical
- assayConditions: phosphate-buffered saline pH 7.4 with 2% DMSO, aqueous buffer, kinetic from dmso stock, 25° C., two hours
readoutType: solubility at 2 h

Examples from the recorded data:
{"columns": ["compoundString", "assayResult"],
 "data": [
  ["CCOc1ccnc(Nc2nc(-c3nccn3C)nn3cc(-c4ccn(C5CC5)n4)c(C)c23)c1", "10 to 30 µM"],
  ["COc1cc(Nc2nc(-c3nccn3C)nn3cc(-c4ccn(C(C)C)n4)c(C)c23)ncn1", "< 10 µM"]
]}

# input for lookup
Measured solubility at 2 h, `Cc1c(-c2ccn(C)n2)cn2nc(-c3nccn3C)nc(Nc3cc4n(n3)CCO4)c12` : 10 to 30 µM

###

- System: Erk1/2 phosphorylation
- assayInfo: Erk1/2 Phosphorylation Assay (western blot), Panc-1
- Assay type: cell-based, human
- assayConditions: at 10 μM, * = activation
readoutType: % inh of Erk1/2 phosphorylation in Panc-1

Examples from the recorded data:
{"columns": ["molecule", "assayResult"],
 "data": [
  ["Cc1c(-c2ccn(C(C)C)n2)cn2nc(-c3nccn3C)nc(Nc3cn(C(C)C)nn3)c12", "D* (85-100% activation)"],
  ["COc1ccnc(Nc2nc(-c3nccn3C)nn3cc(-c4ccn(C(C)C)n4)c(C)c23)c1", "D (85-100% inhibition)"],
  ["COc1cnc(Nc2nc(-c3nccn3C)nn3cc(-c4ccn(C(C)C)n4)c(C)c23)nc1", "C (50-84% inhibition)"],
  ["COc1cccc(-c2cn3nc(-c4nccn4C)nc(N[C@@H]4CC[C@@H](OC)C4)c3c2-c2ccccc2)c1F (racemic)", "D (85-100% inhibition)"]
]}

Measured % inh of Erk1/2 phosphorylation in Panc-1, `CCNC(=O)c1c(-c2ccn(C)n2)cn2nc(-c3nccn3C)nc(Nc3cc(OC)ccn3)c12` : C (50-84% inhibition)

Measured % inh of Erk1/2 phosphorylation in Panc-1, `Cc1c(-c2ccn(C)n2)cn2nc(-c3nccn3C)nc(Nc3cc(OC(C)C)ccn3)c12` : D* (85-100% activation)

###

- targetOrTestSystem: Rac-1 (Homo sapiens)
- Construct: made in house
- assayInfo: Ras GTP Binding Domain Inhibition Assay (Ras Superfamily Assay)
- assayConditions: read-out: Rac-1: % inh.
Structures can show the parent of a compound that is named as a salt.
readoutType: inhibition at 20 µM

Entry `COCCNc1nc(-c2nccn2C)nn2cc(-c3ccncc3)c(-c3ccccc3)c12` , Rac-1 (Homo sapiens) data, inhibition at 20 µM value: 26 to 49%

Entry CO[C@H]1CC[C@@H](Nc2nc(-c3nccn3C)nn3cc(-c4ccn(C(C)C)n4)c(-c4ccccc4)c23)C1 (racemic) [Compound 18, hydrochloride] , Rac-1 (Homo sapiens) data, inhibition at 20 µM value: 0%

Entry COC[C@@H]1CC[C@@H]1CNc1nc(-c2nccn2C)nn2cc(-c3ccn(C(C)C)n3)c(C)c12 (racemic) , Rac-1 (Homo sapiens) data, inhibition at 20 µM value: 1 to 25%

Entry `Cc1c(-c2ccn(C)n2)cn2nc(-c3nccn3C)nc(O)c12` , Rac-1 (Homo sapiens) data, inhibition at 20 µM value: 26 to 49%

Entry `Cc1c(-c2ccn(C)n2)cn2nc(-c3nccn3C)nc(Cl)c12` , Rac-1 (Homo sapiens) data, inhibition at 20 µM value: 50 to 75%

Entry `Cc1c(-c2ccn(C)n2)cn2nc(-c3nccn3C)nc(Nc3nccn3C)c12` , Rac-1 (Homo sapiens) data, inhibition at 20 µM value: 26 to 49%

Entry `COc1cc(Nc2nc(-c3nccn3C)nn3cc(-c4ccn(C(C)C)n4)c(-c4ccccc4)c23)ncn1` , Rac-1 (Homo sapiens) data, inhibition at 20 µM value: 26 to 49%

Entry Cc1ccn2nc(-c3nccn3C)nc(N)c12.O=C(O)C(F)(F)F [Compound 37, trifluoroacetic acid salt] , Rac-1 (Homo sapiens) data, inhibition at 20 µM value: 0%

Entry `Cc1c(-c2ccn(C(C)C)n2)cn2nc(-c3nccn3C)nc(Nc3ccccn3)c12` , Rac-1 (Homo sapiens) data, inhibition at 20 µM value: 76 to 100%

Entry `COc1cccc(-c2cn3nc(-c4nccn4C)nc(N[C@H]4C[C@H](OC)C4)c3c2-c2ccccc2)c1F` , Rac-1 (Homo sapiens) data, inhibition at 20 µM value: 0%

Entry `Cc1c(-c2ccn(C)n2)cn2nc(-c3nccn3C)nc(Nc3ccc(-n4ccnc4)cn3)c12` , Rac-1 (Homo sapiens) data, inhibition at 20 µM value: 1 to 25%

Entry COc1cccc(-c2cn3nc(-c4nccn4C)nc(N[C@@H]4CC[C@@H](OC)C4)c3c2-c2ccccc2)c1C (racemic) , Rac-1 (Homo sapiens) data, inhibition at 20 µM value: 26 to 49%

Entry `Cc1c(-c2ccn(C(C)C)n2)cn2nc(-c3nccn3C)nc(Nc3cc(OCCN(C)C)ncn3)c12` , Rac-1 (Homo sapiens) data, inhibition at 20 µM value: 76 to 100%

Entry `COc1cnc(Nc2nc(-c3nccn3C)nn3cc(-c4ccn(C)n4)c(C)c23)cn1` , Rac-1 (Homo sapiens) data, inhibition at 20 µM value: 50 to 75%

Entry COCC1CCN(c2nc(-c3nccn3C)nn3cc(-c4ccn(C(C)C)n4)c(C)c23)C1 (racemic) , Rac-1 (Homo sapiens) data, inhibition at 20 µM value: 0%
